Tested on: PPARg homodimer (NR concentration 180 nM)
Test: PBM binding z-score (relative to random genomic background probes); higher = stronger binding; sequences stand for … in GC…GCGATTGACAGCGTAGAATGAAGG
yes (1) means recorded PBM binding z-score is 0.8 or above; no (0) means it is below 0.8.

Sequence	Classification
CCGACTGGGGCAAAGTTACCATAACGCACAGCCA	no (0)
CCGAGTAGGTTATGGTGCATTCAGGCAACGGTGA	yes (1)

Input line: Please tell me: is the sequence `CCTAATGGGCCACGAAAGGTCATTGATTCAGTGA` at or over 0.8 in terms of PBM binding z-score?
Output line: yes (1)

Input line: Does `CCGACTGGGGCTAAGGTTACCATACTCAGTACGA` have a reported PBM binding z-score of at least 0.8?
Output line: no (0)

Input line: Determine whether measured PBM binding z-score meets or exceeds 0.8 for `ATATGTAGGTTAGCTGGGGTCATTCAGACTAGGC`
Output line: yes (1)

Input line: Test whether the sequence `CATACAGGGTCAGCTAGGGCAGAGTAGGGACGGC` records PBM binding z-score of 0.8 or higher.
Output line: yes (1)

Input line: Identify whether the reported PBM binding z-score of the following sequence is 0.8 or greater: `CCTAGTTGGTCAATGTCACACACGCTATAGGTAC`
Output line: yes (1)

Input line: Is reported PBM binding z-score greater than or equal to 0.8 here: `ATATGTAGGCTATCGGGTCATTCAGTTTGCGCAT`
Output line: yes (1)

###

System: PPARg:RXRa 270nM:90nM, anti-RXR (NR concentration 270 nM, RXRa partner concentration 90 nM)
Assay: PBM binding z-score (relative to random genomic background probes); higher = stronger binding; sequences stand for … in GC…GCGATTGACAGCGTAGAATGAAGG
Kind request: treat 2 as inclusive, so PBM binding z-score at 2 or higher is Y, anything lower is N.

Sequence	Classification
TATACAGGGTCAAAGGCCAGAGAACGAATGTCGA	Y
ATCGATAGGTCGTGAGGTGAGTATACAGAAAGGC	N
CGTACTAGGTCAGAACAGGACAGTGAAGGATGAT	Y
ACTTACGGGACAACGAGGTTATAGCACGCGTATA	N
TCTATTAGTTGAAGGGCCACCGACGAGTCCGTTT	Y
CCTACTGGGCCATTCAGAGGCCATTGATCATATG	N
ATCGAAAGGTCTTGAGGTGAGTATACAGAAAGGC	N
CATACAGGGTCAGCTAGGCCCGAGTAGGGACGGC	Y
CGAACTAGGTCAGCACAGGACAGTGAAGGATGAT	Y
CCTACTGGGCTATCAGGTCATTGATATCAACGTT	Y

Input line: PBM binding z-score >= 2 for `GCTAGCAGACCATTTGGGTCACTCAATGACGGGC` ?
Output line: N

Input line: Assess whether reported PBM binding z-score for `AGAACGAGGGCACGCTAAGTTGATAGCAGAGTAG` sits at 2 or higher.
Output line: N

###

Test system: LXRa:RXRa (NR concentration 270 nM, RXRa partner concentration 90 nM)
Test: PBM binding z-score (relative to random genomic background probes); higher = stronger binding; sequences stand for … in GC…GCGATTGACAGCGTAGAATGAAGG
Task for the reader: assign each of the following sequences its reported PBM binding z-score.
One number for each entry.

Sequence	Value Observed
TTGCCTAGGTCAGATCGGGCCAGTATACGCTATA	1.04
ACAGACAGGTGAGTGAACGTAACTCAGCTGGACG	-0.366
GCTCGGAGGACATGGTCAGAGCTTTGTCCGTAGA	-0.697
ACTAGCAGGCCAAGATTGGGTCACTCAAACAAAG	-0.288
ACAGACAGGTGAATGAAGGTAACTCAGCTGGACG	-0.0154

Dear reader, for each entry below, please note its PBM binding z-score.
1. TCTTTTAGATCAAGCAGGTTAAGAAAGCCTGAGT
2. ATCTCTAGGTAACCAAGTTCAGTAAATGCCGAAC
3. GGAACGAGAGCAAAGTTGATAGCATCTGTCGACG
4. GCATATACGTAATACAAGGTGAAAGTCCGATTGT
5. TAGCCTTGGTCATGCGGGCCAGTATAGTGTCGGC

Output line:
[0.67, 1.04, -0.564, 0.28, -1.14]

Please state PBM binding z-score for every sequence in the list that follows.
1. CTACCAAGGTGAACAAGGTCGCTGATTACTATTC
2. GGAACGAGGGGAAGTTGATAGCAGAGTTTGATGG

Output line:
1.05
-0.26

###

System: PPARg:RXRa IVT, anti-PPARg (NR concentration 270 nM, RXRa partner concentration 90 nM)
Assay: PBM binding z-score (relative to random genomic background probes); higher = stronger binding; sequences stand for … in GC…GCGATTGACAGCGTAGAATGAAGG
Reported Endpoint: PBM binding z-score
One number for each entry.

Reference set (6 entries):
Sequence	PBM binding z-score
TCGAGTAGGTTACCAATGGGGTATTCAGCTTTCT	2.46
TTACCAAGGTGAAGGTCGTTGGTCCCTCTGTAGA	3.34
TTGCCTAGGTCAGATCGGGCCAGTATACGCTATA	1.07
TCTTGTAGATGAATAGAGGTTAAGAAAGTGCGCT	1.18
ACTCGGAGGACAAAGGTCAGAGATACGCCAGTGA	3.35
CGAACTAGATCATTGACAGGACAGTGAATAGTAA	0.856

Count: 6. Required value per item: PBM binding z-score.
1. GTACCAAGGTGAATAGGTCGTTAATGAGTAGGCG
2. GGTACGAGGGCATTCGAGTTGATAGCATGGCGAT
3. CGAACGATGGCATGAGTTGATAGCAAATGCCGAT
4. TATCCTAGGTCATTGGGCCAGTATAGTACGCATC
5. TCATATAGGTAATACAGCTGAAAGTCGGCATCTA
6. CCTCGGAGGACAACAGGTGGTCAGAGCTGCCAGA

Output line:
2.66
1.41
-0.676
5.49
1.94
-0.616

###

System: LXRa:RXRa (NR concentration 270 nM, RXRa partner concentration 90 nM)
Experiment: PBM binding z-score (relative to random genomic background probes); higher = stronger binding; sequences stand for … in GC…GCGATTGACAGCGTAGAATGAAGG
Would you please tag the item yes when its PBM binding z-score is 2 or above, and no when it is below?

Before answering, review these 6 worked examples.
Sequence	Classification
CCTCGCAGGACAGAAGGTCAGAGCTGTCCGCTTT	no
TCATATAGGTAATACAGGTGAAAGCCGGCATCTA	no
CAAACTAGGTCAAGAGATCAAAGTCCGCTTCCCG	yes
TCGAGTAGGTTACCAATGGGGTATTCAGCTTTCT	no
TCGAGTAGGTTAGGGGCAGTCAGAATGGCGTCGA	no
CCTAGCAGGCCAGGGTCACTCAAGCATTTCGCTT	no

Input line: # check: PBM binding z-score of `AGAACGAGGGCACGCTGAGATGATAGCAGAGTAG` is greater than or equal to 2
Output line: no

###

Test system: RARg homodimer (NR concentration 270 nM)
Assay: PBM binding z-score (relative to random genomic background probes); higher = stronger binding; sequences stand for … in GC…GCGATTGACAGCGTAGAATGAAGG
Class membership depends on PBM binding z-score alone; the intervals are lo (below 1), med (1 to below 4), hi (4 or more)

The examples below pair each entry with its known result.
Sequence	Classification
CAAACTAGGTCAAGGCCAAAGTCGGTTTGTGCCA	hi
TGAATGAGGTTAAAGATTAGGGAACGTGGCGTCG	med
ATATGTAGGTTACAACCGGGTCATTCAGGCTATG	med
CAAACTAGGTCAATGTCAAAGTCGGTTTGTGCCA	hi
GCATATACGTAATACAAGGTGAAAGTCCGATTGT	lo
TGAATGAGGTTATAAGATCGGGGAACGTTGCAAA	lo
GCGACTGGGGCAAAGCAGGTTACCATAAGGTTGG	lo
CAAACTAGATCACCGGAAGGTCAAAGTCCGCATG	med

Input line: Which PBM binding z-score category applies to `CGAACTAGGTCATTGACTGGACAGTGAATAGTAA` here?
Output line: hi

Input line: Textbook exercise: identify the category of the sequence given here, `TGAATGAGGTTATAAGATCAGTGAACGTTGCAAA` , according to its measured value.
Output line: lo

###

Test system: LXRb homodimer (NR concentration 270 nM)
Assay: PBM binding z-score (relative to random genomic background probes); higher = stronger binding; sequences stand for … in GC…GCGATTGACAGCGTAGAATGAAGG
Provide the reported PBM binding z-score of each item.
Answers are plain numbers.

Example sequences with recorded PBM binding z-score:
Sequence	PBM binding z-score
TCTCGGAGGACACGAAGGTCAGTGCTTTCCAGAG	-0.921
TCGAGTAGGTTCCCAATGGGGCATTCAGCTTTCT	-1.76
CCGACTGGGACAGAAAGGTTACCATACCATCCGG	-1.05
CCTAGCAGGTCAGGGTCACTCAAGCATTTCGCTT	-0.723

Dear reader, for each entry below, please note its PBM binding z-score.
1. ATACCAAGGTGTTCGTGAGGTCGTTGATACTAAC
2. GCAGACAGGTGAAACGCAGGTAACACAGGGTGGC

Output line:
0.178
-1.1

Provide each entry's PBM binding z-score from the list below.
1. TCGAGTAGGTTACCAATGGGGCAATCAGCTTTCT
2. TAGCCTAGGTCATGCGGGCAAGTATAGTGTCGGC
3. GATACAGGGTCAGGTAGAGGCCAGAGTATGGAAA
4. ACTATTAATTGAGACGAGGGCAACCGATAGGTTG
5. TGAATGAGGTTAAAGAGCAGGGAACGTGGCGTCG

Output line:
1: -1.22; 2: -0.137; 3: -0.154; 4: 0.479; 5: 0.129

Dear colleague, could you please provide PBM binding z-score for the sequences listed below?
1. CCAGACAGGTGAGAAGGTAACACAGCCTCGATTA
2. TCTCGGAGGACACGAAGGTCAGAGCTTTCCAGAG
3. CCTACTGGGCCATTCAGAGGTAATTGATCATATG
4. CAAACTAGGTCAAGGTCAAACTCGGTTTGTGCCA
5. ATATGTAGGTTAAGGGTCATTCTGGTTGGTTCGC

Output line:
1. -0.0709
2. -1.06
3. -0.992
4. 1.71
5. 1.56

Here are 2 sequences. What values of PBM binding z-score were reported for them?
1. GATACAGGGTCAAGGCCCGAGTACGCGTATTGAT
2. ATCTCTAGGTAAAGAGAGTTCAGTGAATGCAAAT

Output line:
-0.411
0.27

The reported measurements were obtained from the supplement of paper PMC6555819.
